# log10 IC50 annotations
Test system: AMO-1 human multiple myeloma tumor cell line
protocol_notes: AMO-1 cell viability assay (CellTiter-Glo, 24 hours)
Type: cell-based
particulars: Homo sapiens, AMO1, 24 h, read-out: AMO-1 Viability IC50 (μM, 10% FBS), 10% FBS, 24 hours of compound treatment
reported_property: log10 IC50 (log10 of the value in µM)

1. COCCOCCOCCOCCOCCOCCOCCOCCOCCOCCOCCC(=O)NCc1ccc(-c2nccc(COc3ccc4cc3C[C@H](C(=O)O)Oc3ncnc5sc(-c6ccc(F)cc6)c(c35)-c3c(C)c(Cl)c(c(Cl)c3C)O[C@H](CN3CCN(C)CC3)CO4)n2)cc1	-1.17
2. COCCOCCOCCC1CCN(c2nccc(COc3ccc4cc3C[C@H](C(=O)O)Oc3ncnc5sc(-c6ccc(F)cc6)c(c35)-c3c(C)c(Cl)c(c(Cl)c3C)O[C@H](CN3CCN(C)CC3)CO4)n2)CC1	-3.19
3. Cc1c(Cl)c2c(Cl)c(C)c1-c1c(-c3ccc(F)cc3)sc3ncnc(c13)O[C@@H](C(=O)O)Cc1cc(ccc1OCc1ccnc(C3(COCCOCCOC[C@H]4COCCO4)CCC3)n1)OC[C@@H](CN1CCN(C)CC1)O2	-3.48
4. COCCOCCOc1cc(COc2ccc3cc2C[C@H](C(=O)O)Oc2ncnc4sc(-c5ccc(F)cc5)c(c24)-c2c(C)c(Cl)c(c(Cl)c2C)O[C@H](CN2CCN(C)CC2)CO3)nc(-c2ccccc2OC)n1	-3.51
5. COCCOCCOCCOCCOCCOCC1(C)CC=C(c2nccc(COc3ccc4cc3C[C@H](C(=O)O)Oc3ncnc5sc(-c6ccc(F)cc6)c(c35)-c3c(C)c(Cl)c(c(Cl)c3C)O[C@H](CN3CCN(C)CC3)CO4)n2)CC1 (single isomer, unassigned)	-3.76
6. COCCOCCOCCOCCOCCOCCOCCOCCOCCOCCOCCNC(=O)c1ccc(-c2nccc(COc3ccc4cc3C[C@H](C(=O)O)Oc3ncnc5sc(-c6ccc(F)cc6)c(c35)-c3c(C)c(Cl)c(c(Cl)c3C)O[C@H](CN3CCN(C)CC3)CO4)n2)cc1	-1.74
7. Cc1c(Cl)c2c(Cl)c(C)c1-c1c(-c3ccc(F)cc3)sc3ncnc(c13)O[C@@H](C(=O)O)Cc1cc(ccc1OCc1ccnc(OC[C@@H]3CN(C)CCCO3)n1)OC[C@@H](CN1CCN(C)CC1)O2	-2.37
8. Cc1c(Cl)c2c(Cl)c(C)c1-c1c(-c3ccc(F)cc3)sc3ncnc(c13)O[C@@H](C(=O)O)Cc1cc(ccc1OCc1ccnc([C@@]3(O)CCCC[C@@H]3O)n1)OC[C@@H](CN1CCN(C)CC1)O2	-2.63
9. CO[C@H]1O[C@H](COc2ccc(-c3nccc(COc4ccc5cc4C[C@H](C(=O)O)Oc4ncnc6sc(-c7ccc(F)cc7)c(c46)-c4ccc(c(Cl)c4C)O[C@H](CN4CCN(C)CC4)CO5)n3)cc2)[C@@H](O)[C@H](O)[C@@H]1O	-1.73
10. COCCOCCOCCO[C@H]1CC[C@H](c2nccc(COc3ccc4cc3C[C@H](C(=O)O)Oc3ncnc5sc(-c6ccc(F)cc6)c(c35)-c3c(C)c(Cl)c(c(Cl)c3C)O[C@H](CN3CCN(C)CC3)CO4)n2)CC1	-3.61
11. Cc1c(Cl)c2c(Cl)c(C)c1-c1c(-c3ccc(F)cc3)sc3ncnc(c13)O[C@@H](C(=O)O)Cc1cc(ccc1OCc1ccnc([C@H]3CC[C@H](CC(=O)O)CC3)n1)OC[C@@H](CN1CCN(C)CC1)O2	-2.06
12. COCCOCCOCCOc1ccc(COc2ccc3cc2C[C@H](C(=O)O)Oc2ncnc4sc(-c5ccc(F)cc5)c(c24)-c2c(C)c(Cl)c(c(Cl)c2C)O[C@H](CN2CCN(C)CC2)CO3)nc1	-1.92
13. COCCOCCOCCOCCOCCOCC1(c2nccc(COc3ccc4cc3C[C@H](C(=O)O)Oc3ncnc5sc(-c6ccc(F)cc6)c(c35)-c3c(C)c(Cl)c(c(Cl)c3C)O[C@H](CN3CCN(C)CC3)CO4)n2)CCCCC1	-2.93
14. COCCOCCOC[C@H]1CC=C(c2nccc(COc3ccc4cc3C[C@H](C(=O)O)Oc3ncnc5sc(-c6ccc(F)cc6)c(c35)-c3c(C)c(Cl)c(c(Cl)c3C)O[C@H](CN3CCN(C)CC3)CO4)n2)CC1	-3.91
15. COCCOCCOCCOCCOCCOC1(c2nccc(COc3ccc4cc3C[C@H](C(=O)O)Oc3ncnc5sc(-c6ccc(F)cc6)c(c35)-c3c(C)c(Cl)c(c(Cl)c3C)O[C@H](CN3CCN(C)CC3)CO4)n2)CCC1	-2.69
16. Cc1c(Cl)c2c(Cl)c(C)c1-c1c(-c3ccc(F)cc3)sc3ncnc(c13)O[C@@H](C(=O)O)Cc1cc(ccc1OCc1ccnc(N3CCOCCOCCOCCOCCOCC3)n1)OC[C@@H](CN1CCN(C)CC1)O2	-2.53
17. COCCOCCOCCOc1ccc(-c2nccc(COc3ccc4cc3C[C@H](C(=O)O)Oc3ncnc5sc(-c6ccc(F)cc6)c(c35)-c3ccc(c(Cl)c3C)O[C@H](CN3CCN(C)CC3)CO4)n2)cc1 (atropisomer, axis not shown)	-3.34
